# target: HIV-1 protease (Human immunodeficiency virus type 1 group M subtype B, UniProt P04585)
# Construct: Purified HIV-1 protease was obtained as described below; made in house; host or cells: E. coli K12 L507/pHP10D (NRRL B-18560)
# run.description: biochemical
# particulars: purified HIV-1 protease, MES-ALB buffer pH 5.5; 1 h preincubation, 16 h with substrate, room temperature; IC50 values for Examples 2-70 are standardized relative to Ex 1; read-out: Fluorescence Assay IC50 (converted)
endpoint.name: IC50 (nM)

smiles.string | target | endpoint.name | unit.info | recorded.number
CC(C)(C)NC(=O)c1ccccc1C[C@@H](O)[C@H](Cc1ccccc1)NC(=O)[C@H](CC(N)=O)NC(=O)c1nccc2ccccc12 | HIV-1 protease (Human immunodeficiency virus type 1 group M subtype B, UniProt P04585) | IC50 | nM | 13.1
CC(C)(C)NC(=O)c1ccccc1C[C@@H](O)[C@H](Cc1ccccc1)NC(=O)[C@H](CC(N)=O)NC(=O)c1ccc2cc(F)cc(F)c2n1 | HIV-1 protease (Human immunodeficiency virus type 1 group M subtype B, UniProt P04585) | IC50 | nM | 11.2
CC(C)(C)NC(=O)c1ccccc1C[C@@H](O)[C@H](Cc1ccccc1)NC(=O)[C@H](CC(N)=O)NC(=O)COc1cccc2ccccc12 | HIV-1 protease (Human immunodeficiency virus type 1 group M subtype B, UniProt P04585) | IC50 | nM | 4.23
CC(C)[C@H](NC(=O)c1cnc2ccccc2n1)C(=O)N[C@@H](Cc1ccccc1)[C@H](O)Cc1ccccc1C(=O)NC(C)(C)C | HIV-1 protease (Human immunodeficiency virus type 1 group M subtype B, UniProt P04585) | IC50 | nM | 7.55
Cc1ccc(C[C@@H](O)[C@H](Cc2ccccc2)NC(=O)[C@H](CC(N)=O)NC(=O)c2ccc3ccccc3n2)c(C(=O)NC(C)(C)C)c1 | HIV-1 protease (Human immunodeficiency virus type 1 group M subtype B, UniProt P04585) | IC50 | nM | 3.37
CC(C)(C)NC(=O)c1ccccc1C[C@@H](O)[C@H](Cc1ccccc1)NC(=O)[C@H](CC(=O)NNc1cccnc1)NC(=O)c1ccc2ccccc2n1 | HIV-1 protease (Human immunodeficiency virus type 1 group M subtype B, UniProt P04585) | IC50 | nM | 0.228
CC(C)[C@H](NC(=O)c1ccc2ccccc2c1)C(=O)N[C@@H](Cc1ccccc1)[C@H](O)Cc1ccccc1C(=O)NC(C)(C)C | HIV-1 protease (Human immunodeficiency virus type 1 group M subtype B, UniProt P04585) | IC50 | nM | 131

====

# target: HIV-1 protease (Human immunodeficiency virus type 1 group M subtype B, UniProt P04585)
# Construct: Purified HIV-1 protease was obtained as described below; made in house; host or cells: E. coli K12 L507/pHP10D (NRRL B-18560)
# run.description: biochemical
# particulars: read-out: Fluorescence Assay IC50 (converted)
Reported values of IC50 for individual entries

smiles.string | unit.info | IC50
COc1cc(C(=O)N[C@@H](CC(N)=O)C(=O)N[C@@H](Cc2ccccc2)[C@H](O)Cc2ccccc2C(=O)NC(C)(C)C)nc2ccccc12 | nM | 0.782
CC(C)(C)NC(=O)c1ccccc1C[C@@H](O)[C@H](Cc1ccccc1)NC(=O)[C@H](CC(N)=O)NC(=O)c1ccc2cccc(Cl)c2n1 | nM | 5.9
CC(C)(C)NC(=O)c1occc1C[C@@H](O)[C@H](Cc1ccccc1)NC(=O)[C@H](CC(N)=O)NC(=O)c1ccc2ccccc2n1 | nM | 46.7
Cc1ccc2ccc(C(=O)N[C@@H](CC(N)=O)C(=O)N[C@@H](Cc3ccccc3)[C@H](O)Cc3ccccc3C(=O)NC(C)(C)C)nc2c1 | nM | 0.641
CC(C)(C)NC(=O)c1ccccc1C[C@@H](O)[C@H](Cc1ccccc1)NC(=O)[C@H](CCC(N)=O)NC(=O)c1ccc2ccccc2c1 | nM | 38.9
CC(C)(C)NC(=O)c1ccccc1C[C@@H](O)[C@H](Cc1ccccc1)NC(=O)[C@H](CC(=O)NCc1ncc[nH]1)NC(=O)c1ccc2ccccc2n1 | nM | 1.88

====

# target: HIV-1 protease (Human immunodeficiency virus type 1 group M subtype B, UniProt P04585)
# Construct: Purified HIV-1 protease was obtained as described below; made in house; host or cells: E. coli K12 L507/pHP10D (NRRL B-18560)
# run.description: biochemical
# particulars: read-out: Fluorescence Assay IC50 (converted)
endpoint.name: IC50 (nM)

smiles.string | endpoint.name | recorded.number
CC(C)(C)NC(=O)c1ccccc1C[C@@H](O)[C@H](Cc1ccccc1)NC(=O)[C@H](CC(N)=O)NC(=O)COc1ccc2ccccc2n1 | IC50 | 3.75
CC(C)(C)NC(=O)c1ccccc1C[C@@H](O)[C@H](CC1CCCCC1)NC(=O)[C@H](CC(N)=O)NC(=O)c1ccc2ccccc2n1 | IC50 | 14.9
CC(C)(C)NC(=O)c1ccccc1C[C@@H](O)[C@H](Cc1ccc(OCc2ccccc2)cc1)NC(=O)[C@H](CC(N)=O)NC(=O)c1ccc2ccccc2n1 | IC50 | 12
CC(C)(C)NC(=O)c1ccccc1C[C@@H](O)[C@H](Cc1ccccc1)NC(=O)[C@H](CO)NC(=O)OCc1ccccc1 | IC50 | 890
Cc1ccc(C[C@@H](O)[C@H](Cc2ccccc2)NC(=O)[C@H](Cc2c[nH]cn2)NC(=O)c2ccc3ccccc3n2)c(C(=O)NC(C)(C)C)c1 | IC50 | 7.73
Cc1cccc(C[C@@H](O)[C@H](Cc2ccccc2)NC(=O)[C@H](CC(N)=O)NC(=O)c2ccc3ccccc3n2)c1C(=O)NC(C)(C)C | IC50 | 28.9

====

# target: HIV-1 protease (Human immunodeficiency virus type 1 group M subtype B, UniProt P04585)
# Construct: Purified HIV-1 protease was obtained as described below; made in house; host or cells: E. coli K12 L507/pHP10D (NRRL B-18560)
# run.description: Western Blot Analysis of HIV Protease Inhibition Assay (HIV-1 protease produced in E. coli, processing of gag polyprotein Pr48^gag)
# Type: biochemical
# particulars: yield of p17 from gag polyprotein; 30 min preincubation at room temperature, one hour at 37° C.
pIC50: −log10 of the molar value.
endpoint.name: pIC50

compound | endpoint.name | recorded.number
Cc1cccc(C[C@@H](O)[C@H](Cc2ccccc2)NC(=O)[C@H](CC(N)=O)NC(=O)c2ccc3ccccc3n2)c1C(=O)NC(C)(C)C [Example 3] | pIC50 | 7.22
CCC(C)(C)NC(=O)c1ccccc1C[C@@H](O)[C@H](Cc1ccccc1)NC(=O)[C@H](CC(N)=O)NC(=O)c1ccc2ccccc2n1 [Example 8] | pIC50 | 8.82
Cc1ccc(C[C@@H](O)[C@H](Cc2ccccc2)NC(=O)[C@H](CC(N)=O)NC(=O)c2ccc3ccccc3n2)c(C(=O)NC(C)(C)C)c1 [Example 2] | pIC50 | 7.30

====

# target: HIV-1 protease (Human immunodeficiency virus type 1 group M subtype B)
# Construct: Purified HIV-1 protease was obtained as described below; made in house; host or cells: E. coli K12 L507/pHP10D (NRRL B-18560)
# run.description: biochemical
# particulars: read-out: Fluorescence Assay IC50 (converted)

compound | target | unit.info | IC50
CC(C)(C)NC(=O)c1cc2ccccc2cc1C[C@@H](O)[C@H](Cc1ccccc1)NC(=O)[C@H](CC(N)=O)NC(=O)c1ccc2ccccc2n1 (relative stereo) | HIV-1 protease (Human immunodeficiency virus type 1 group M subtype B) | nM | 12.7
CC(C)(C)NC(=O)c1ccccc1C[C@@H](O)[C@H](Cc1ccccc1)NC(=O)[C@H](CC(N)=O)NC(=O)c1ccccn1 | HIV-1 protease (Human immunodeficiency virus type 1 group M subtype B) | nM | 129
Cc1cc(C)c2ccc(C(=O)N[C@@H](CC(N)=O)C(=O)N[C@@H](Cc3ccccc3)[C@H](O)Cc3ccccc3C(=O)NC(C)(C)C)nc2c1 | HIV-1 protease (Human immunodeficiency virus type 1 group M subtype B) | nM | 0.784

====

# target: HIV-1 protease (Human immunodeficiency virus type 1 group M subtype B)
# Construct: Purified HIV-1 protease was obtained as described below; made in house; host or cells: E. coli K12 L507/pHP10D (NRRL B-18560)
# run.description: Western Blot Analysis of HIV Protease Inhibition Assay (HIV-1 protease produced in E. coli, processing of gag polyprotein Pr48^gag)
# Type: biochemical
# particulars: yield of p17 from gag polyprotein; 30 min preincubation at room temperature, one hour at 37° C.
pIC50: −log10 of the molar value.
Label n if pIC50 falls below 8; label y in every other case.

smiles.string | qualitative.label
CC(C)(C)NC(=O)c1c(C[C@@H](O)[C@H](Cc2ccccc2)NC(=O)[C@H](CC(N)=O)NC(=O)c2ccc3ccccc3n2)ccc2ccccc12 | y
CC(C)[C@H](NC(=O)c1ccc2ccccc2n1)C(=O)N[C@@H](Cc1ccccc1)[C@H](O)Cc1ccccc1C(=O)NC(C)(C)C | y
CC(C)(C)NC(=O)c1ccccc1C[C@@H](O)[C@H](Cc1ccccc1)NC(=O)[C@H](CC(N)=O)NC(=O)c1nc2ccccc2[nH]1 | n
CC(C)(C)NC(=O)c1ccccc1C[C@@H](O)[C@H](Cc1ccccc1)NC(=O)[C@H](Cc1cnc[nH]1)NC(=O)c1ccc2ccccc2n1 | y
CC(C)(C)NC(=O)c1ccccc1C[C@@H](O)[C@H](Cc1ccccc1)NC(=O)[C@H](CC(N)=O)NC(=O)COc1cccc2ccccc12 | y
